# Tested System: T1, huCLL1-K244-Avi-Tev-His (human, UniProt Q5QGZ9 65-265);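 further: Bio-layer interferometry with scFvs captured on biosensors via anti-V5 antibody, exposed 2 min to CLL-1 K244 or Q244 protein, 5 min dissociation, scored as binding, no binding or ambiguous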
# T1 construct: extracellular domain
# T1 sequence (looked up): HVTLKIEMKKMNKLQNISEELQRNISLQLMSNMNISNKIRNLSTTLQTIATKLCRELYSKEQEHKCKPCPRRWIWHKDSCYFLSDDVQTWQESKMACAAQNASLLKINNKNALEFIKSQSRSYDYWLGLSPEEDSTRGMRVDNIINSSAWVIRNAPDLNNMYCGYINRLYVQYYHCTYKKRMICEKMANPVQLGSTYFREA
# Measurement Protocol: BLI

Binder: Polypeptide No. 50 (scFv, V domains shown, scFv) VH: QVQLVQSGAEVKKPGASVKVSCKASGYTFTDYYMHWVRQAPGQGLEWMGIINPSDGSTTYAQSFQGRVTMTRDTSTSTVYMELSSLRSEDTAVYYCARDELPDSSGWYGYFQHWGQGTLVTVSS VL: DIQMTQSPSSLSASVGDRVTITCRASQSISSWLAWYQQKPGKAPKLLIYAASSLQSGVPSRFSGSGSGTDFTLTISSLQPEDFATYYCQQSYDIPLTFGGGTKVEIKR
binding result: binds

Binder: Polypeptide No. 49 (scFv, V domains shown, scFv) VH: EVQLVESGGGLVKPGGSLRLSCAASGFTFSDYALHWVRQAPGKGLEWVSLISGDGGSTYYADSVKGRFTISRDDSKNTLYLQMNSLKTEDTAVYYCARDLGGERSYWGQGTLVTVSS VL: DIQMTQSPSSLSASVGDRVTITCRASQSISTWLAWYQQKPGKAPKLLIYAASTLQSGVPSRFSGSGSGTDFTLTISSLQPEDFATYYCLQDYSYPPTFGQGTKVEIKR
binding result: binds
